The measurements presented in this section are drawn from PubChem BioAssay (NCATS).

Test: HEK-293 Cancer Cell Toxicity qHTS against the NCATS CANVASS Library (AID 1347355); note: nearly all actives have a fitted effect of over 65% in size
Details: HEK-293 viability, CellTiter-Glo luminescence, 72 h; series mostly up to 46.1 µM
Results filed as inconclusive are left out. The source made the active and inactive calls. Calls come from the whole dose curve; as a rule, active = well fitted cell-killing curve with a large enough effect; inconclusive = small, poorly fitted or top-dose-only effect; inactive = flat fitted curve, though single readings scatter. Square brackets hold non-standard residues; d marks the D form. Peptide text beside a SMILES is read from it. ξ: configuration not given here. ξL = CC(C)CC(N)C(=O)O
Classes used: active, inactive

compound	class
C[C@@]12CCC[C@@](C)(C(=O)O)[C@H]1C[C@@H](O)[C@@]13C[C@@H](CC[C@@H]21)[C@](C)(O)C3	inactive
CN1CC[C@@]23c4ccccc4N[C@@H]1[C@@]21CCN(C)[C@@H]3Nc2ccccc21	inactive
CC[C@@H](C)[C@H]1NC(=O)C(CC(C)C)NC(=O)[C@@H](CC(C)C)NC(=O)[C@H](Cc2c[nH]c3ccccc23)NC(=O)CNC(=O)[C@@H](CC(N)=O)NC1=O (stereo partly drawn) (cyclo(GW[dL][ξL][dI][dN]))	active
CC1=C[C@H]2[C@H]3C(=O)C(c4ccc(O)cc4)=C[C@@]3(c3ccc(O)cc3)[C@@H]1C(=O)[C@]2(C)O	active

* * *

Assay: S16 Schwann cell viability assay (CellTiter-Glo assay) (AID 624031);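 note: native untransfected S16 rat Schwann cells; cellular ATP luminescence as a viability measure; plate controls were DMSO-treated cells for no effect and cell-free wells for full effect; nearly all actives have a fitted effect of over 70% in size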
Conditions: S16 rat Schwann cells viability, 24 h; series mostly up to 57.5 µM
Protocol: Charcot-Marie-Tooth-Association [CMTA] National Center for Advancing Translational Sciences [NCATS] […] Native S16 cells were seeded in white solid-bottom 1536 well plates at between 500-750 cells/6uL in DMEM medium containing 10% FBS, w/o phenol red. […] Then one volume of CellTiter-Glo assay reagent (Promega) was added to each well for cell viability measured by a ViewLux plate reader (PerkinElmer). […]
Inconclusive results are not listed. Activity calls are given as the source filed them. The call rests on the fitted dose curve; in most records, active means well fitted cell-killing curve with a large enough effect; inconclusive means small, poorly fitted or top-dose-only effect, or effect the other way; inactive means flat fitted curve, though single readings scatter.
parameter_measured: outcome

>>> print(df.to_string())
                               query_smiles  endpoint_result
0            Oc1ccc(/C=C\c2cc(O)cc(O)c2)cc1         inactive
1    COc1ccc(CCNC[C@@H](O)c2ccc(O)cc2)cc1OC         inactive
2  CC(/C=C1\SC(=S)N(CC(=O)O)C1=O)=C\c1ccccc1         inactive
3  CC(C)n1c(/C=C/[C@H](O)C[C@H](O)CC(=O)O)c(-c2ccc(F)cc2)c2ccccc21         inactive

* * *

Target: 3',5'-cyclic-AMP phosphodiesterase 4B (Homo sapiens)
Assay: qHTS Assay for Inhibitors of PDE-IV (AID 607); note: % of control where 0% means no effect
Conditions: HEK293 ACTOne CNG channel cells, membrane potential fluorescence; series mostly up to 22.9 µM
Results filed as inconclusive are left out. The source made the active and inactive calls. Calls follow the shape of the dose curve; as a rule, active = well fitted activation curve with a large enough effect in the main read-out, with a control signal flat (not every such curve was filed as active); inconclusive = small, poorly fitted or top-dose-only effect, or effect the other way, or a change in a side signal; inactive = flat fitted curve, though single readings scatter.
parameter_measured: outcome

                                query_smiles  parameter_measured  endpoint_result
 0  COc1cccc(Nc2ncc3nc(-c4ccc(F)cc4)c(=O)n(C)c3n2)c1             outcome         inactive
 1       Cc1cccc(CNc2ncncc2-c2cccc(C#N)c2)c1             outcome         inactive
 2           COc1ccccc1-c1cncnc1Nc1ccc(F)cc1             outcome         inactive
 3  CN(C)c1ncc2nc(-c3ccc(F)cc3)c(=O)n(C[C@H]3CCCO3)c2n1             outcome         inactive
 4         CC(=O)N1CCC2(CCN(Cc3nccs3)CC2)CC1             outcome         inactive
 5  COc1ccc(C(=O)N2CCC3(CC2)CN(c2ccncc2)C3)cc1             outcome         inactive
 6  Cc1noc(C)c1C(=O)N1CCC2(CCN(Cc3ccc(C#N)cc3)CC2)CC1             outcome         inactive
 7  COCC(=O)N1CCC2(CC1)CN(C(c1ccccc1)c1ccccc1)C2             outcome         inactive
 8  COc1cccc(Cn2c(=O)c(-c3cc(F)cc(F)c3)nc3cnc(N4CCN(C)CC4)nc32)c1             outcome         inactive
 9     CN(C)c1ccnc(-c2cccc(NS(C)(=O)=O)c2)n1             outcome         inactive
10        c1nc(N2CCNCC2)c2cc(-c3ccoc3)ccc2n1             outcome         inactive

* * *

Assay: NFAT Signaling Pathway (AID 444);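 note: carbachol stimulus at about its EC50 of 1 µM final; % is set by controls: 0 for no effect and ±100 for the full control effect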
Details: Jurkat NFAT-bla M1, carbachol, beta-lactamase ratio, 5 h; at 7.69 µM (top of the series) unless noted
Records with an inconclusive call do not appear. Calls of active or inactive are those of the source. The call rests on the fitted dose curve; in most records, active means well fitted curve in either direction with a large enough effect (not every such curve was filed as active); inconclusive means small, poorly fitted or top-dose-only effect, or another doubt; inactive means flat fitted curve, though single readings scatter.
parameter_measured: activity change, negative = inhibition

>>> df
                               query_smiles                      parameter_measured              endpoint_result
0            CN(C)c1ncc2ncc(=O)n(CCC#N)c2n1  activity change, negative = inhibition             3.55% (inactive)
1           Cc1ccccc1-c1cc(NCCN2CCOCC2)ncn1  activity change, negative = inhibition            -3.03% (inactive)
2  COc1ccc(NC(=O)N2CCC3(CC2)CCN(S(=O)(=O)c2ccccc2)CC3)cc1  activity change, negative = inhibition            -21.7% (inactive)
3   CN1CC[C@@]2(CCCN(C(=O)c3cccc(F)c3)C2)C1  activity change, negative = inhibition            -2.53% (inactive)
4  CC(C)NC(=O)N1CCC2(CC1)CCN(C(=O)c1csnn1)CC2  activity change, negative = inhibition             6.85% (inactive)
5  CN(Cc1ccco1)c1ncnc2ccc(-c3ccccc3C(F)(F)F)cc12  activity change, negative = inhibition            -18.5% (inactive)
6  O=C(c1cc(C(F)(F)F)cc(C(F)(F)F)c1)N1CCC2(CC1)CN(c1ccccc1)C2  activity change, negative = inhibition            -25.4% (inactive)
7  COc1cccc(Nc2ncc3nc(-c4ccccc4)c(=O)n(Cc4cccs4)c3n2)c1  activity change, negative = inhibition            -11.8% (inactive)
8  COC(=O)c1c(-c2cc(OC)c(OC)c(OC)c2)c2ccc(OCc3ccccn3)cc2c(=O)n1-c1ccc(N)cc1  activity change, negative = inhibition  10.6% [at 38 µM] (inactive)
9            Cc1noc(C)c1-c1cncnc1NCc1ccccc1  activity change, negative = inhibition            0.549% (inactive)

* * *

System: 3D7
Assay: qHTS profiling for inhibitors of Plasmodium falciparum proliferation (AID 504749); note: nearly all actives have a fitted effect of over 60% in size
Details: P. falciparum in erythrocytes, SYBR Green DNA, 72 h; series mostly up to 28.7 µM
Description: NIH National Institute of Allergy and Infectious Diseases [NIAID] NIH Chemical Genomics Center [NCGC] […] Because mature erythrocytes lack DNA, only Plasmodium-derived DNA is detected. NCGC Assay Protocol Summary: The SYBR Green viability assay was adapted from a method described previously (Plouffe et al., 2008). […] The following morning, fluorescence intensity at 485(14) nm excitation and 535(25) nm emission wavelengths was measured on an EnVision (Perkin Elmer) plate reader. […]
Inconclusive results are not listed. Activity calls are given as the source filed them. Calls follow the shape of the dose curve; as a rule, active = well fitted inhibition curve with a large enough effect; inconclusive = small, poorly fitted or top-dose-only effect; inactive = flat fitted curve, though single readings scatter.
Labels: Yes = active, No = inactive

molecule	class
CN1C[C@H](C(=O)N[C@]2(C)O[C@@]3(O)C4CCCN4C(=O)[C@H](Cc4ccccc4)N3C2=O)C[C@@H]2c3cccc4[nH]cc(c34)C[C@H]21 (stereo partly drawn)	Yes
CN=C(N)NCCCC(N)C(=O)O (stereo not drawn)	No
N[C@H](Cc1ccc(O)c(O)c1)C(=O)O	No

* * *

Experiment: qHTS for differential inhibitors of proliferation of Plasmodium falciparum line D10 (AID 1877);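 note: parasites grown with compound for 72 h before DNA staining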
Conditions: series mostly up to 28.7 µM
Results filed as inconclusive are left out. Calls of active or inactive are those of the source. Calls follow the shape of the dose curve; as a rule, active = well fitted curve in the direction sought with a large enough effect; inconclusive = small, poorly fitted or top-dose-only effect, or another doubt; inactive = no such curve, though single readings can be large or run the other way.
Labels: active, inactive

compound	class
NC(=S)NCCCC(N)C(=O)O (stereo not given)	inactive
COc1cc(=O)n(C)c2c(OCC(O)C(C)(C)O)cccc12 (stereo not given)	inactive
CN1CCc2cc(Cl)c(O)cc2C(c2ccccc2)C1 (stereo not given)	active
OC[C@H]1O[C@@H](n2cnc3c(N[C@H]4CC5CCC4C5)ncnc32)[C@H](O)[C@@H]1O (stereo not given in full)	inactive
NC(=NCCC[C@H](N)C(=O)O)NO	inactive
OC[C@H]1O[C@@H](n2cnc3c(NC4CCCC4)ncnc32)[C@H](O)[C@H]1O	inactive
O=C(O)CC[C@H](NC(=O)c1ccccc1C(=O)O)C(=O)O	inactive
CCCNC[C@H](O)COc1ccccc1C(=O)CCc1ccccc1	active
CNc1ncnc2c1ncn2[C@@H]1O[C@H](CO)[C@H](O)[C@H]1O	inactive
Nc1ncnc2c1ncn2[C@@H]1O[C@H](C(=O)NC2CC2)[C@H](O)[C@H]1O	inactive
OC[C@H]1O[C@@H](n2cnc3c(Nc4ccccc4)ncnc32)[C@H](O)[C@H]1O	inactive
CSc1nc(N)c2ncn([C@@H]3O[C@H](COP(=O)(O)OP(=O)(O)O)[C@H](O)[C@H]3O)c2n1	inactive
CCSC(N)=Nc1ccc(C(F)(F)F)cc1	inactive
CC(C)C1NC(=O)[C@H](CCCCN)NC(=O)[C@@H](Cc2c[nH]c3ccccc23)NC(=O)[C@H](Cc2ccc(O)cc2)NC(=O)[C@H](C)N(C)C(=O)[C@H](Cc2ccccc2)NC1=O (stereo not given in full)	inactive
CC(O)[C@@H](O)[C@H]1CNc2nc(N)[nH]c(=O)c2N1 (stereo not given in full)	inactive
COC(=O)c1c(-c2cc(OC)c(OC)c(OC)c2)c2ccc(OCc3ccccn3)cc2c(=O)n1-c1ccc(N)cc1	active
NC(=S)c1ccc[n+]([C@@H]2O[C@@H](COP(=O)([O-])OP(=O)(O)OC[C@H]3O[C@@H](n4cnc5c(N)ncnc54)[C@H](OP(=O)(O)O)[C@H]3O)C(O)C2O)c1 (stereo not given in full)	inactive
O=[N+]([O-])c1ccc(CSc2ncnc3c2ncn3[C@@H]2O[C@H](CO)[C@H](O)[C@H]2O)cc1	inactive
NCCNC(=O)c1ccc(Cl)cc1	inactive
COc1c2c(nc3ccccc13)OC(C(C)(O)CO)C2 (stereo not given)	inactive
